Values from patent US20080161232A1

- Study System: human C5aR(CD88) (Homo sapiens)
- Construct: expressed in transfected cells; host or cells: rat basophilic leukemia cells (RBL)
- Test Method Notes: Determination of the IC50 value in an enzyme release assay (functional assay, antagonistic activity)
- Type: cell-based
- Test Conditions: antagonistic activity; IC50 group in enzyme release assay, RBL cells expressing human C5aR(CD88); read-out: activity (group)
pIC50: −log10 of the molar value. Positions of bridges follow the written chain, without caps; N, C: chain ends. Non-standard residues stand in square brackets, D forms with d. Residues, ends and D or L forms follow the SMILES beside them. Phe(4-F) = N[C@@H](Cc1ccc(F)cc1)C(=O)O; Bta = N[C@@H](Cc1csc2ccccc12)C(=O)O; d(hLeu) = CC(C)CC[C@@H](N)C(=O)O; dCha = N[C@H](CC1CCCCC1)C(=O)O; Nle = CCCC[C@H](N)C(=O)O; Orn = NCCC[C@H](N)C(=O)O
Quantity Measured: pIC50

- CC(C)CC[C@H]1NC(=O)[C@H](CO)NC(=O)[C@@H](NC(=O)[C@@H](N)Cc2ccccc2)CCCNC(=O)[C@H](Cc2ccccc2)NC(=O)[C@H](Cc2ccc(F)cc2)NC1=O [Compound 389, H-Phe-[Orn-Ser-hle-Pff-Phe]] (H-F[Orn]S[d(hLeu)][Phe(4-F)]F; lactam 2-C): 6.70 to 7.30

Input: Identify the measured pIC50 of CCCC[C@@H]1NC(=O)[C@H](Cc2c[nH]c3ccccc23)NC(=O)[C@@H](CC2CCCCC2)NC(=O)[C@H]([C@@H](C)O)NC(=O)[C@@H](NC(=O)[C@H](Cc2ccccc2)NC(C)=O)CCCNC1=O [Compound 203, Ac-Phe-[Orn-Thr-cha-Trp-Nle]] (Ac-F[Orn]T[dCha]W[Nle]; lactam 2-C) for human C5aR(CD88) (Homo sapiens).
Output: 6.70 to 7.30

Input: Identify the measured pIC50 of CC(=O)N[C@@H](Cc1ccccc1)C(=O)N[C@@H](CCCN)C(=O)N1CCC[C@H]1C(=O)N[C@H](CCC(C)C)C(=O)N[C@@H](Cc1csc2ccccc12)C(=O)N[C@@H](Cc1ccc(O)cc1)C(N)=O [Compound 282, Ac-Phe-Orn-Pro-hle-Bta-Tyr-NH2] (Ac-F[Orn]P[d(hLeu)][Bta]Y-NH2) for human C5aR(CD88) (Homo sapiens).
Output: 6.70 to 7.30

----------
- Study System: human C5aR(CD88) (Homo sapiens)
- Construct: expressed in transfected cells; host or cells: rat basophilic leukemia cells (RBL)
- Test Method Notes: Determination of the IC50 value in an enzyme release assay (functional assay, antagonistic activity)
- Format: cell-based
- Test Conditions: antagonistic activity; IC50 group in enzyme release assay, RBL cells expressing human C5aR(CD88); read-out: activity (group)
Starred links: 1 amine or outer side, 2 acyl side, 3 side chain; linkers in the order of their positions; H or OH if unused. Positions of bridges follow the written chain, without caps; N, C: chain ends. Non-standard residues stand in square brackets, D forms with d. Residues, ends and D or L forms follow the SMILES beside them. Groups on a side chain read outwards from the residue. *: point of attachment. Phe(4-Me) = Cc1ccc(C[C@H](N)C(=O)O)cc1; X11 = N=C(N)N[C@@H](Cc1ccccc1)C(=O)*; Bta = N[C@@H](Cc1csc2ccccc12)C(=O)O; Hyp = O=C(O)[C@@H]1C[C@@H](O)CN1; d(hLeu) = CC(C)CC[C@@H](N)C(=O)O; dCha = N[C@H](CC1CCCCC1)C(=O)O; dChg = N[C@@H](C(=O)O)C1CCCCC1; NHCH2CH(OH)CH2OH = OCC(O)CN*; Nle = CCCC[C@H](N)C(=O)O; Orn = NCCC[C@H](N)C(=O)O; Aze = O=C(O)[C@@H]1CCN1; CO = O=C([*:1])[*:2]; tBu = CC(C)(C)*
Measured IC50, listed per entry for reference.

Reference set, count: 3
* CC(=O)N[C@@H](Cc1ccccc1)C(=O)N[C@H]1CCCNC(=O)[C@H](CCCNC2=NCCN2)NC(=O)[C@H](Cc2c[nH]c3ccccc23)NC(=O)[C@@H](CC2CCCCC2)NC(=O)[C@@H]2CCCN2C1=O [Compound 7, Ac-Phe-[Orn-Pro-cha-Trp-Arg(CH2CH2)]] | 200 to 2000 nM
* CCCC[C@@H]1NC(=O)[C@H](Cc2c[nH]c3ccccc23)NC(=O)[C@@H](CC2CCCCC2)NC(=O)[C@@H]2C[C@@H](OC(=O)NCC(O)CO)CN2C(=O)[C@@H](NC(=O)[C@H](Cc2ccccc2)NC(C)=O)CCCNC1=O (stereo partly shown) [Compound 6] (Ac-F[Orn][Hyp]([CO-NHCH2CH(OH)CH2OH])[dCha]W[Nle]; lactam 2-C) | 50 to 200 nM
* CC(=O)NCC(=O)N[C@@H](Cc1ccccc1)C(=O)N[C@@H](CCCN)C(=O)N1CC[C@H]1C(=O)N[C@@H](C(=O)N[C@@H](Cc1csc2ccccc12)C(=O)N[C@@H](Cc1ccccc1)C(N)=O)C1CCCCC1 [Compound 155, Ac-Gly-Phe-Orn-Aze-chg-Bta-Phe-NH2] (Ac-GF[Orn][Aze][dChg][Bta]F-NH2) | 50 to 200 nM

Input: Given the entry CC(=O)N[C@@H](Cc1ccccc1)C(=O)N[C@@H](CCCN)C(=O)N1CCC[C@H]1C(=O)N[C@H](CSC(C)(C)C)C(=O)N[C@@H](Cc1csc2ccccc12)C(=O)N[C@@H](Cc1ccccc1)C(N)=O [Compound 263, Ac-Phe-Orn-Pro-ctb-Bta-Phe-NH2] (Ac-F[Orn]P[dC](tBu)[Bta]F-NH2) , report its measured IC50.
Output: 20 to 50 nM

Input: Given the entry CC(=O)N[C@@H](Cc1ccccc1)C(=O)N[C@H]1CCCNC(=O)[C@H](Cc2ccc(C)cc2)NC(=O)[C@H](Cc2c[nH]c3ccccc23)NC(=O)[C@@H](CC2CCCCC2)NC(=O)[C@@H]2CCCN2C1=O [Compound 36, Ac-Phe-[Orn-Pro-cha-Trp-Pmf]] (Ac-F[Orn]P[dCha]W[Phe(4-Me)]; lactam 2-C) , report its measured IC50.
Output: 20 to 50 nM

Input: Given the entry N=C(N)N[C@@H](Cc1ccccc1)C(=O)N[C@@H](CCCN)C(=O)N1CCC[C@H]1C(=O)N[C@H](CC1CCCCC1)C(=O)N[C@@H](Cc1csc2ccccc12)C(=O)N[C@@H](Cc1ccccc1)C(N)=O [Compound 339, Fhu-Phe-Orn-Pro-cha-Bta-Phe-NH2] (X11-[Orn]P[dCha][Bta]F-NH2) , report its measured IC50.
Output: 50 to 200 nM

Input: Given the entry CC(=O)N[C@@H](Cc1ccccc1)C(=O)N[C@@H](Cc1c[nH]c2ccccc12)C(=O)N1CCC[C@H]1C(=O)N[C@H](CC1CCCCC1)C(=O)N[C@@H](Cc1c[nH]c2ccccc12)C(=O)N[C@@H](Cc1ccccc1)C(N)=O [Compound 84, Ac-Phe-Trp-Pro-cha-Trp-Phe-NH2] (Ac-FWP[dCha]WF-NH2) , report its measured IC50.
Output: 50 to 200 nM

Input: Given the entry CC(C)CC[C@H]1NC(=O)[C@@H]2C[C@@H](O)CN2C(=O)[C@@H](NC(=O)[C@@H](N)Cc2ccccc2)CCCNC(=O)[C@H](Cc2ccccc2)NC(=O)[C@H](Cc2c[nH]c3ccccc23)NC1=O [Compound 371, H-Phe-[Orn-Hyp-hle-Trp-Phe]] (H-F[Orn][Hyp][d(hLeu)]WF; lactam 2-C) , report its measured IC50.
Output: 20 to 50 nM

----------
- Study System: human C5aR(CD88) (Homo sapiens, UniProt P21730)
- Construct: expressed in transfected cells; host or cells: rat basophilic leukemia cells (RBL)
- Sequence (P21730 1-350): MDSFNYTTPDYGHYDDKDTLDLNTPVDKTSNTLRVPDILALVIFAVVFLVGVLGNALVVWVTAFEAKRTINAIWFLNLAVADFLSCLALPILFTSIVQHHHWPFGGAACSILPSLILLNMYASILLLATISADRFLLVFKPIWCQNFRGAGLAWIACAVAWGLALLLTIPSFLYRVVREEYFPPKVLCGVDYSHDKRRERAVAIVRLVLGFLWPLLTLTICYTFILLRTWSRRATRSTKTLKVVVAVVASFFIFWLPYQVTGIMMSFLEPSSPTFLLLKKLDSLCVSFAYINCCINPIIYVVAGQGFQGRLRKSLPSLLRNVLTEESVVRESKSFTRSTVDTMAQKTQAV
- Test Method Notes: Determination of the IC50 value in an enzyme release assay (functional assay, antagonistic activity)
- Assay type: cell-based
- Test Conditions: antagonistic activity; IC50 group in enzyme release assay, RBL cells expressing human C5aR(CD88); read-out: activity (group)
pIC50: −log10 of the molar value. Positions of bridges follow the written chain, without caps; N, C: chain ends. Non-standard residues stand in square brackets, D forms with d. Residues, ends and D or L forms follow the SMILES beside them. *: point of attachment. Phe(F5) = N[C@@H](Cc1c(F)c(F)c(F)c(F)c1F)C(=O)O; Decanoyl(3,6,9-trioxa) = COCCOCCOCC(=O)*; Bta = N[C@@H](Cc1csc2ccccc12)C(=O)O; Hyp = O=C(O)[C@@H]1C[C@@H](O)CN1; d(hLeu) = CC(C)CC[C@@H](N)C(=O)O; dCha = N[C@H](CC1CCCCC1)C(=O)O; Orn = NCCC[C@H](N)C(=O)O
Quantity Measured: pIC50

• COCCOCCOCC(=O)N[C@@H](Cc1ccccc1)C(=O)N[C@H]1CCCNC(=O)[C@H](Cc2ccccc2)NC(=O)[C@H](Cc2c[nH]c3ccccc23)NC(=O)[C@@H](CC2CCCCC2)NC(=O)[C@@H]2C[C@@H](O)CN2C1=O [Compound 337, Fhi-Phe-[Orn-Hyp-cha-Trp-Phe]] ({Decanoyl(3,6,9-trioxa)}-F[Orn][Hyp][dCha]WF; lactam 2-C) = 6.70 to 7.30

Turning to the following molecule.
Input: Given the entry CC(=O)N[C@@H](Cc1ccccc1)C(=O)N[C@@H](CCCN)C(=O)N1CCC[C@H]1C(=O)N[C@H](CCC(C)C)C(=O)N[C@@H](Cc1csc2ccccc12)C(=O)N[C@@H](Cc1c(F)c(F)c(F)c(F)c1F)C(N)=O [Compound 272, Ac-Phe-Orn-Pro-hle-Bta-5Ff-NH2] (Ac-F[Orn]P[d(hLeu)][Bta][Phe(F5)]-NH2) , report its measured pIC50.
Output: 6.70 to 7.30
